# target.or.system: BCL-XL (Homo sapiens (Human), UniProt Q07817)
# Sequence (Q07817 whole entry): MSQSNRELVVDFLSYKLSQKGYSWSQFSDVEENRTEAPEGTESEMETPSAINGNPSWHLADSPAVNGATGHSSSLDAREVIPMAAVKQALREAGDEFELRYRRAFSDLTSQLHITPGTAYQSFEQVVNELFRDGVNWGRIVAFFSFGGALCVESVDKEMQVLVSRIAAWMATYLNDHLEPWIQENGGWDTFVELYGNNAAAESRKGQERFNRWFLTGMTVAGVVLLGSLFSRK
measured.property: Kd

Value of Kd reported for the compound O=C(c1ccc(COc2ccccc2)cc1)N1CCc2ccc(-c3cc4cccnc4[nH]3)cc2C1 [Compound F6] is 10 to 100 µM

Value of Kd reported for the compound CN1CCN(CC#Cc2ccc(OCc3ccc(C(=O)N4CCc5cnc(-c6cnc7ccccc7c6)nc5C4)cn3)cc2)CC1 [Compound C5] is < 0.1 µM

Value of Kd reported for the compound CNC(=O)c1ccc(-c2cc(C(=O)N3CCc4c(nc(-c5cnc6ccccc6c5)nc4NC)C3)n[nH]2)cc1 [Compound 6A] is 1 to 10 µM

Value of Kd reported for the compound CNc1nc(-c2cnc3ccccc3c2)nc2c1CCN(C(=O)c1ccc(COc3ccc(C#CCN4CCN(C)CC4)cc3C)cc1)C2 [Compound D5] is 0.1 to 1 µM

Others:
Value of Kd reported for the compound CNc1nc(-c2ccc(Oc3ccccc3)nc2)nc2c1CCN(C(=O)c1ccc(COc3ccccc3)cc1)C2 [Compound A8] is 1 to 10 µM

Value of Kd reported for the compound CNc1nc(-c2cnc3ccccc3c2)nc2c1CCN(C(=O)c1cc(-c3ccc(C4CCN(C)CC4)cc3)[nH]n1)C2 [Compound 3B] is 10 to 100 µM

Value of Kd reported for the compound CNc1nc(-c2cnc3ccccc3c2)nc2c1CN(c1nc(C(=O)O)cs1)C2 [Compound E1] is 10 to 100 µM

Value of Kd reported for the compound CN1CCN(CC#Cc2ccc(OCc3ccc(C(=O)N4CCc5cnc(-c6cnc7ccccc7c6)nc5C4)cc3)cn2)CC1 [Compound C7] is < 0.1 µM

Value of Kd reported for the compound CCc1ccc(-c2cc(C(=O)N3CCc4c(nc(-c5cnc6ccccc6c5)nc4NC)C3)[nH]n2)cc1 [Compound 7A] is 10 to 100 µM

Value of Kd reported for the compound CNc1nc(-c2cnc3ccccc3c2)nc2c1CCN(C(=O)c1ccc(COc3ccc(C#CCN(C)C)cc3C)cc1)C2 [Compound D2] is 0.1 to 1 µM

Value of Kd reported for the compound CNc1nc(-c2cc3ccccc3nc2O)nc2c1CCN(C(=O)c1ccc(COc3ccccc3)cc1)C2 [Compound A5] is 10 to 100 µM

Value of Kd reported for the compound CNc1nc(-c2n[nH]c3ccccc23)nc2c1CCN(C(=O)c1ccc(COc3ccccc3)cc1)C2 [Compound A6] is 10 to 100 µM

Value of Kd reported for the compound CNc1nc(-c2cnc3ccccc3c2)nc2c1CCN(C(=O)c1cccc(C(=O)O)c1)C2 [Compound A14] is 10 to 100 µM

Value of Kd reported for the compound CNc1nc(-c2cnc3ccccc3c2)nc2c1CCN(C(=O)c1ccc(COc3ccc(C#CCN(C)C)cc3)cc1)C2 [Compound D1] is < 0.1 µM

Value of Kd reported for the compound CC(C)(C)c1ccc(-c2cc(C(=O)N3CCc4cnc(-c5cnc6ccccc6c5)nc4C3)[nH]n2)cc1 [Compound 1C] is 0.1 to 1 µM

###

# target.or.system: BCL-XL (Homo sapiens (Human))
pKd: −log10 of the molar value.
measured.property: pKd

Record CN(C)c1nc(-c2cnc3ccccc3c2)nc2c1CCN(C(=O)c1ccc(COc3ccccc3)cc1)C2 [Compound A2] / BCL-XL (Homo sapiens (Human)), pKd recorded as 6.00 to 7.00

Record C[C@@H](CNc1nc(-c2cnc3ccccc3c2)nc2c1CCN(C(=O)c1ccc(COc3ccccc3)cc1)C2)c1ccccc1 [Compound A3] / BCL-XL (Homo sapiens (Human)), pKd recorded as 5.00 to 6.00

Record CNc1nc(-c2cccc(NC(=O)C(C)C)c2)nc2c1CN(Cc1ccc(Cl)cn1)C2 [Compound E8] / BCL-XL (Homo sapiens (Human)), pKd recorded as 4.00 to 5.00

Others:
Record CNc1nc(-c2cnc3ccccc3c2)nc2c1CCN(C(=O)c1cc(-c3ccc(C(C)(C)CNC(C)=O)cc3)n[nH]1)C2 [Compound 3A] / BCL-XL (Homo sapiens (Human)), pKd recorded as > 7.00

Record CNc1nc(-c2cnc3ccccc3c2)nc2c1CCN(C(=O)c1cc(-c3ccc(C4CCNCC4)cc3)[nH]n1)C2 [Compound 1B] / BCL-XL (Homo sapiens (Human)), pKd recorded as 5.00 to 6.00

Record CNc1nc(-c2cnc3ccccc3c2)nc2c1CCN(C(=O)c1ccc(/C=C/c3ccc(C#CCN4CCN(C)CC4)cc3)cc1)C2 [Compound D6] / BCL-XL (Homo sapiens (Human)), pKd recorded as > 7.00

Record CNC(=O)C(C)(C)c1ccc(-c2cc(C(=O)N3CCc4c(nc(-c5cnc6ccccc6c5)nc4NC)C3)[nH]n2)cc1 [Compound 4A] / BCL-XL (Homo sapiens (Human)), pKd recorded as 6.00 to 7.00
